Biological target: ATP-dependent translocase ABCB1 (Homo sapiens)
Sequence (P08183 whole entry): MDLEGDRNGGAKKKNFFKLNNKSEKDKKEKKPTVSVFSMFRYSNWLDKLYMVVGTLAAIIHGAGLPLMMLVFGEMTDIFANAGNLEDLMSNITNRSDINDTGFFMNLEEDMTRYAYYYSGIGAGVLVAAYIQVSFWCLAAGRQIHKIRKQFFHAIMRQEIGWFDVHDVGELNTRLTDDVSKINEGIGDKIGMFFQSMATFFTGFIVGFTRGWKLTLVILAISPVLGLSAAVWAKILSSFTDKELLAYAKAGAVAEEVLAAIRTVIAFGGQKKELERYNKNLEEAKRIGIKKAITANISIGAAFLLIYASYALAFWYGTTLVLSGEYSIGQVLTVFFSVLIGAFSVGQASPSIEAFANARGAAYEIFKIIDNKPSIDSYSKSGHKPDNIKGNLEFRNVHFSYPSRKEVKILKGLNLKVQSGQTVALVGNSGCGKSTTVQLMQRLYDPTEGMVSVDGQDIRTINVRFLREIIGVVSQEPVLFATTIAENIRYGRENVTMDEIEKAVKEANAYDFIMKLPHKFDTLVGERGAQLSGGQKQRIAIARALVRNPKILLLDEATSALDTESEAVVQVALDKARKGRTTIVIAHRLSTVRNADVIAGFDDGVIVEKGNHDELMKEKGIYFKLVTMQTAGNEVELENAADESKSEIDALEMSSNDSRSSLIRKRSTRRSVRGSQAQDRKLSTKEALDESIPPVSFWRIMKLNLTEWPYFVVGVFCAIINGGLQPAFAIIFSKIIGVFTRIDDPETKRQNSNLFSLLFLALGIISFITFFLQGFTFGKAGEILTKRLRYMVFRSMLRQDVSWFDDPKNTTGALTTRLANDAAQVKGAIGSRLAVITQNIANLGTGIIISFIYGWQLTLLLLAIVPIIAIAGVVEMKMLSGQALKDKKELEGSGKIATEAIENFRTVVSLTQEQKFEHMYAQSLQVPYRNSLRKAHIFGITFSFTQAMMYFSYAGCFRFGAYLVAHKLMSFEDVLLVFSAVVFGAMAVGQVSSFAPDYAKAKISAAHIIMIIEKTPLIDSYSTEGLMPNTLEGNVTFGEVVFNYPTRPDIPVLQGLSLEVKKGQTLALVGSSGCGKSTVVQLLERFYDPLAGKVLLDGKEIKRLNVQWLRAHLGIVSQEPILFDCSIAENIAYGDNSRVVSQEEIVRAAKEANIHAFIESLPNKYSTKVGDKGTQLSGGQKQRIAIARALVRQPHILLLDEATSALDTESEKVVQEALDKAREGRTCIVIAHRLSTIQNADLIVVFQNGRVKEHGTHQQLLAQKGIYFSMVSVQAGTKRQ
Assay: Inhibition of P-gp in human KB-V1/Vbl cells assessed as calcein-AM accumulation preincubated for 15 mins followed by calcein-AM addition measured after 15 mins by fluorescence assay
pIC50: −log10 of the molar value.

{"MOLECULE": "COc1cc(/C=C/C(=O)c2ccc3ccccc3c2)cc(I)c1OC", "SYSTEM_UNDER_TEST": "ATP-dependent translocase ABCB1 (Homo sapiens)", "RELATION_OPERATOR": "<", "pIC50": 3.30}
{"MOLECULE": "COc1cc(/C=C/C(=O)c2ccc3ccccc3c2)cc(Cl)c1OC", "SYSTEM_UNDER_TEST": "ATP-dependent translocase ABCB1 (Homo sapiens)", "RELATION_OPERATOR": "<", "pIC50": 3.30}
{"MOLECULE": "COc1cc(C2CC(c3ccc4ccccc4c3)=NN2C(C)=O)cc(Cl)c1OC (configuration not stated)", "SYSTEM_UNDER_TEST": "ATP-dependent translocase ABCB1 (Homo sapiens)", "RELATION_OPERATOR": "=", "pIC50": 4.92}
{"MOLECULE": "COc1cc(/C=C/C(=O)c2ccc3ccccc3c2)cc(OC)c1OC", "SYSTEM_UNDER_TEST": "ATP-dependent translocase ABCB1 (Homo sapiens)", "RELATION_OPERATOR": "=", "pIC50": 4.89}
{"MOLECULE": "COc1cc(C2CC(c3ccc4ccccc4c3)=NN2C(C)=O)cc(I)c1OC (configuration not stated)", "SYSTEM_UNDER_TEST": "ATP-dependent translocase ABCB1 (Homo sapiens)", "RELATION_OPERATOR": "=", "pIC50": 4.79}
{"MOLECULE": "COc1cc(C2CC(c3ccc4ccccc4c3)=NN2C(C)=O)cc(Br)c1OC (configuration not stated)", "SYSTEM_UNDER_TEST": "ATP-dependent translocase ABCB1 (Homo sapiens)", "RELATION_OPERATOR": "=", "pIC50": 4.90}
{"MOLECULE": "COc1cc(/C=C/C(=O)c2ccc3ccccc3c2)cc(Br)c1OC", "SYSTEM_UNDER_TEST": "ATP-dependent translocase ABCB1 (Homo sapiens)", "RELATION_OPERATOR": "<", "pIC50": 3.30}

---

Test: Growth inhibition of human HT-29 cells after 72 hrs by MTT assay
Type: functional, cell-based
Conditions: HT-29, 72 h

{"COMPOUND": "COc1cc(/C=C/C(=O)c2ccc3ccccc3c2)cc(Br)c1OC", "IC50 [µM]": 22.8}
{"COMPOUND": "COc1cc(C2CC(c3ccc4ccccc4c3)=NN2C(C)=O)cc(I)c1OC (configuration not stated)", "IC50 [µM]": 2.3}
{"COMPOUND": "COc1cc(/C=C/C(=O)c2ccc3ccccc3c2)cc(Cl)c1OC", "IC50 [µM]": 23.9}
{"COMPOUND": "COc1cc(/C=C/C(=O)c2ccc3ccccc3c2)cc(OC)c1OC", "IC50 [µM]": 28.1}
{"COMPOUND": "COc1cc(C2CC(c3ccc4ccccc4c3)=NN2C(C)=O)cc(Cl)c1OC (configuration not stated)", "IC50 [µM]": 3.5}
{"COMPOUND": "COc1cc(/C=C/C(=O)c2ccc3ccccc3c2)cc(I)c1OC", "IC50 [µM]": 13.3}
{"COMPOUND": "COc1cc(C2CC(c3ccc4ccccc4c3)=NN2C(C)=O)cc(Br)c1OC (configuration not stated)", "IC50 [µM]": 2.5}
